tested on: Rattus norvegicus; assay: Metabolic stability in Sprague-Dawley rat assessed as conversion to hydroxymatairesinol level at 50 mg/kg, po after 48 hrs; type: ADME, organism-based; design: dose 50 mg/kg, route oral; conditions: in vivo
Measured attribute: Activity
State the result as a value with its unit after it.

Task item: Entry COc1cc(C[C@H]2C(=O)OC[C@@H]2[C@H](O)c2ccc(O)c(OC)c2)ccc1O [HYDROXYMATAIRESINOL] : reported Activity = ?
Reply: 1100 nmol
